These entries and their values trace back to ChEMBL document CHEMBL6182856.

assay: Phototoxicity against human HT-29 cells assessed as inhibition of cell growth incubated for 24 hrs measured under normoxia conditions and after one-photon excitation upon irradiation with light at 520 nm, 200 mW/cm2 for 10 mins by MTT assay; type: functional, cell-based; conditions: HT-29, light or radiation study
Would you mind telling me the reported IC50 of each entry?
Value and unit, in that order.

Per the records, this compound ( CCn1c2ccc(/C=C/c3cc[n+](C)c4ccccc34)cc2c2cc([N+](=O)[O-])ccc21.I ) has IC50 equal to 3550 nM

Per the records, this compound ( CCn1c2ccc(/C=C/c3cc[n+](C)c4ccccc34)cc2c2cc(N(c3ccccc3)c3ccccc3)ccc21.[I-] ) has IC50 equal to 29 nM

Per the records, this compound ( CCn1c2ccc(N)cc2c2cc(/C=C/c3cc[n+](C)c4ccccc34)ccc21.[I-] ) has IC50 equal to 2770 nM

---

Would you mind telling me the reported pIC50 of each entry?
experiment: Phototoxicity against mouse 4T1 cells assessed as inhibition of cell growth incubated for 24 hrs measured under normoxia conditions and after one-photon excitation upon irradiation with light at 520 nm, 200 mW/cm2 for 10 mins by MTT assay; assay type: functional, cell-based; conditions: 4T1, light or radiation study
Please treat pIC50 as minus the base-10 logarithm of the molar concentration.

Per the records, this compound ( CCn1c2ccc(/C=C/c3cc[n+](C)c4ccccc34)cc2c2cc(N(c3ccccc3)c3ccccc3)ccc21.[I-] ) has pIC50 equal to 7.29

Per the records, this compound ( CCn1c2ccc(N)cc2c2cc(/C=C/c3cc[n+](C)c4ccccc34)ccc21.[I-] ) has pIC50 equal to 5.44

Per the records, this compound ( CCn1c2ccc(/C=C/c3cc[n+](C)c4ccccc34)cc2c2cc([N+](=O)[O-])ccc21.I ) has pIC50 equal to 5.32
